readout: melting point

Sample answers from the record:
O=c1cc(-c2ccccc2)c2c([nH]1)CCCC2 : 285 to 288 °C
CCOC(=O)c1ccc(-c2ccc(Cl)cc2)[nH]1 : 148 °C
CC(C#CC1CC(Oc2ccc(OC(F)(F)F)cc2)C1)N(O)C(N)=O (single isomer, unassigned; (+)) : 103 to 105 °C
O=C(NCc1cccnc1)c1ccc2n1Cc1ccccc1N(C(=O)CSc1ccc(Br)cc1)C2 : 136 to 137 °C
Sc1cc(Cl)nc2ncnn12 : > 300 °C
CCOC(=O)c1sc(-n2c(=O)n(Cc3ccc(F)cc3)c3ccccc32)nc1C : 192 to 193 °C
CSC(=S)NN=Cc1nc(C)[nH]c1C : 279 to 281 °C
O=C(O)C(NC(=O)C(F)(F)F)c1ccccc1 (stereo unspecified) : 155 to 157 °C

Challenge: GET /values?readout=melting point&item= `CCCc1nc(I)c(C=O)[nH]1`
Response given: 141 to 142 °C

Challenge: Check `CC(C)(C)OC(=O)Cn1c(C(=O)O)cc2ccccc21` too.
Response given: 156 to 157 °C

Challenge: Try this compound too: `NOC(=O)C(=C(C(=O)C(F)(F)F)c1ccccc1)c1ccccc1`
Response given: 175 °C
